# System: Staphylococcus epidermidis CCM 7221
# MEASUREMENT_PROTOCOL: MIC, microdilution method
# Assay type: cell-based
# STATED_CONDITIONS: Staphylococcus epidermidis, CCM7221
Item-by-item account of MIC
Express your answer in µg/mL, writing the number without its unit.

Known results for compounds:
| COMPOUND | UNIT_TAG | MIC |
| --- | --- | --- |
| CCCC/C=C\CCOP(=O)(CCN(CCCN)CCCN)OCCCCCCOP(=O)(CCN(CCCN)CCCN)OCC/C=C\CCCC (stereo not shown) | µg/mL | 0.5 |
| CC(C)COP(=O)(CCN(CCCN)CCCN)OCCCCCCCCCCOP(=O)(CCN(CCCN)CCCN)OCC(C)C (stereo not shown) | µg/mL | 4 |
| CCCCCCOP(=O)(CCN(CCN)CCN)OCCCCCCCCOP(=O)(CCN(CCN)CCN)OCCCCCC (stereo not shown) | µg/mL | 2 |

Any idea what its MIC is? The compound is CC(C)COP(=O)(CCN(CCCN)CCCN)OCCCCCCCCCCCCCCOP(=O)(CCN(CCCN)CCCN)OCC(C)C (stereo not shown)
0.5

Look at this compound and give its reported MIC. CCCCCOP(=O)(CCN(CCCN)CCCN)OCCCCCCCCCCCCOP(=O)(CCN(CCCN)CCCN)OCCCCC (stereo not shown)
0.5

###

# System: Enterococcus faecalis ATCC 29212 = CCM 4224
# MEASUREMENT_PROTOCOL: MIC, microdilution method
# Assay type: cell-based
# STATED_CONDITIONS: Enterococcus faecalis
MEASUREMENT_TYPE: MIC (µg/mL)
Please reply with the bare figure in µg/mL and do not write the unit itself.

Look at this compound and give its reported MIC. CCCCCCOP(=O)(CCN(CCN)CCN)OCCCCCCCCOP(=O)(CCN(CCN)CCN)OCCCCCC (stereo not shown) [Example 55]
128

Look up MIC: CCCCCOP(=O)(CCN(CCCN)CCCN)OCCCCCCCCOP(=O)(CCN(CCCN)CCCN)OCCCCC.Cl.Cl.Cl.Cl.Cl.Cl (stereo not shown) [Example 37]
16

MIC for CC(C)COP(=O)(CCN(CCCN)CCCN)OCCCCCCCCCCCCCCOP(=O)(CCN(CCCN)CCCN)OCC(C)C (stereo not shown) [Example 51] ?
4

For the compound CC(C)COP(=O)(CCN(CCCN)CCCN)OCCCCCCCCCCOP(=O)(CCN(CCCN)CCCN)OCC(C)C (stereo not shown) [Example 40] , what MIC is on record?
128

Please look up its MIC: CCCCCOP(=O)(CCN(CCCN)CCCN)OCCCCCCCCCCOP(=O)(CCN(CCCN)CCCN)OCCCCC.Cl.Cl.Cl.Cl.Cl.Cl (stereo not shown) [Example 42]
4

For the compound shown here, CCCCCCCCCCOP(=O)(CCN(CCCN)CCCN)OCCCCCCCCCCOP(=O)(CCN(CCCN)CCCN)OCCCCCCCCCC (stereo not shown) [Example 45] , give the reported MIC.
32

Quick check: MIC of CCCC/C=C\CCOP(=O)(CCN(CCCN)CCCN)OCCCCCCOP(=O)(CCN(CCCN)CCCN)OCC/C=C\CCCC (stereo not shown) [Example 57] ?
16

Suppose we examine the compound CCCCCOP(=O)(CCN(CCCN)CCCN)OCCCCCCCCCCCCOP(=O)(CCN(CCCN)CCCN)OCCCCC (stereo not shown) [Example 48] ; what MIC value has been reported?
1
